Values were extracted from ChEMBL document CHEMBL1144330.

# target.or.test.system: Caspase-2 (Homo sapiens, UniProt P42575)
# Sequence (P42575 170-325 limits assumed): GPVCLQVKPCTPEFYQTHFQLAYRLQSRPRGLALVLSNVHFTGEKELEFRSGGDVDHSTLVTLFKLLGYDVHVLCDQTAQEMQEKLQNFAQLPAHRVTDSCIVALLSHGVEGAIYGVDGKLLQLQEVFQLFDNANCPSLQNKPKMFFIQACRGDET
# Sequence (P42575 334-452 limits assumed): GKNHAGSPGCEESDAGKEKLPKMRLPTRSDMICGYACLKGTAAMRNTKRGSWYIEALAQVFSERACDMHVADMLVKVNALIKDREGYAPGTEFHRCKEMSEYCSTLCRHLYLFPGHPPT
# assay.info: Inhibitory concentration against casp-2 in neuronal precursor (NT2) cells
pIC50: −log10 of the molar value.
quantity.kind: pIC50

Task: Please look up its pIC50: CCCCCN(C)CC(=O)C(CC(=O)O)NC(=O)C(CC)n1cc(C(C)(C)C)nc(NCc2nonc2C)c1=O (stereo unspecified)
Output: < 5.00

---

Entries and their measured pIC50 follow.
# target.or.test.system: Caspase-7 (Homo sapiens, UniProt P55210)
# Sequence (P55210 whole entry): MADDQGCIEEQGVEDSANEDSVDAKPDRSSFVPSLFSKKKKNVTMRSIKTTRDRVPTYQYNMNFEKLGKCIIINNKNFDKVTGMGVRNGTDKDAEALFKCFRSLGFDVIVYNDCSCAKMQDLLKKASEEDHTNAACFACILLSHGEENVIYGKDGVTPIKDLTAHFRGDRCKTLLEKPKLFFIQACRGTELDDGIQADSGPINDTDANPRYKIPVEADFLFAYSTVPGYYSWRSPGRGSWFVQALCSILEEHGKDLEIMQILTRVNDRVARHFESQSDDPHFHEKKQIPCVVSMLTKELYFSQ
# assay.info: Inhibitory concentration against recombinant human caspase-7 […]
Friendly reminder that pIC50 comes from taking -log10 of the concentration in mol/L.

The examples below pair each entry with its known result.
compound	target.or.test.system	pIC50
CCCCCN(C)CNCC(=O)[C@H](CC(=O)O)NC(=O)C(CC)n1ccnc(NCc2nonc2C)c1=O (stereo not given in full)	Caspase-7 (Homo sapiens, UniProt P55210)	6.96
CCC(C(=O)N[C@@H](CC(=O)O)C(=O)CNCN1CCCC1)n1ccnc(NCc2nonc2C)c1=O (stereo not given in full)	Caspase-7 (Homo sapiens, UniProt P55210)	6.39
CCCCCN(C)CC(=O)C(CC(=O)O)NC(=O)C(CC)n1cc(C(C)(C)C)nc(NCc2nonc2C)c1=O (stereo not given)	Caspase-7 (Homo sapiens, UniProt P55210)	7.05
CCC(C(=O)N[C@@H](CC(=O)O)C(=O)CSCc1ccccc1)n1ccnc(NCC2COc3ccccc3O2)c1=O (stereo not given in full)	Caspase-7 (Homo sapiens, UniProt P55210)	5.48

Here's the next entry for you.
Task: Please look up its pIC50: CCC(C(=O)N[C@@H](CC(=O)O)C(=O)CNCN(C)CC)n1ccnc(NCc2nonc2C)c1=O (stereo not given in full)
Output: 6.27

---

# target.or.test.system: Caspase-7 (Homo sapiens)
# Sequence (P55210 whole entry): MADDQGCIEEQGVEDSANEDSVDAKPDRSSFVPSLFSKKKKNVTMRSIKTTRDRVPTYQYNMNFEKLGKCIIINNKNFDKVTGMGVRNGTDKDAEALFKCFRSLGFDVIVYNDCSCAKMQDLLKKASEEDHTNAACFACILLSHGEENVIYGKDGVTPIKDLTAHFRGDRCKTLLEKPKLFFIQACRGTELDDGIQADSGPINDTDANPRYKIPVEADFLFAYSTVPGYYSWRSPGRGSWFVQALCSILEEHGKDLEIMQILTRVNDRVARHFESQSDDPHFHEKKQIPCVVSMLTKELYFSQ
# assay.info: Inhibitory concentration against recombinant human caspase-7 […]
// classify: if (IC50 < 500 nM) label 1 else label 0

Look over these answered cases.
compound	target.or.test.system	qualitative.label
CCC(C(=O)N[C@@H](CC(=O)O)C(=O)CSCc1ccccc1)n1ccnc(NCCCN2CCCC2=O)c1=O (some centres not stated)	Caspase-7 (Homo sapiens)	label 0
CCCCCN(C)CNCC(=O)[C@H](CC(=O)O)NC(=O)C(CC)n1cc(C(C)(C)C)nc(NCc2nonc2C)c1=O (some centres not stated)	Caspase-7 (Homo sapiens)	label 1
CCC(C(=O)N[C@@H](CC(=O)O)C(=O)CNCN1Cc2ccccc2C1)n1ccnc(NCc2nonc2C)c1=O (some centres not stated)	Caspase-7 (Homo sapiens)	label 1

Task: Record CCC(C(=O)N[C@@H](CC(=O)O)C(=O)CNCN(C)C)n1ccnc(NCc2nonc2C)c1=O (some centres not stated) : is its IC50 strictly below 500 nM?
Output: label 1

Task: Record CCC(C(=O)N[C@@H](CC(=O)O)C(=O)CSCc1ccccc1)n1ccnc(NCCCOC)c1=O (some centres not stated) : is its IC50 strictly below 500 nM?
Output: label 0

Task: Record CCC(C(=O)N[C@@H](CC(=O)O)C(C)=O)n1cc(C(C)(C)C)nc(NCc2nonc2C)c1=O (some centres not stated) : is its IC50 strictly below 500 nM?
Output: label 1

Task: Record CCC(C(=O)N[C@@H](CC(=O)O)C(=O)CNCN1CCc2ccccc2C1)n1ccnc(NCc2nonc2C)c1=O (some centres not stated) : is its IC50 strictly below 500 nM?
Output: label 1

Task: Record CCC(C(=O)N[C@@H](CC(=O)O)C(=O)CSCc1ccccc1)n1ccnc(NCc2nccs2)c1=O (some centres not stated) : is its IC50 strictly below 500 nM?
Output: label 0

Task: Record CCCCN(C)CNCC(=O)[C@H](CC(=O)O)NC(=O)C(CC)n1ccnc(NCc2nonc2C)c1=O (some centres not stated) : is its IC50 strictly below 500 nM?
Output: label 1

Task: Record CCC(C(=O)N[C@@H](CC(=O)O)C(=O)CSCc1ccccc1)n1ccnc(NCc2ccon2)c1=O (some centres not stated) : is its IC50 strictly below 500 nM?
Output: label 0

Task: Record CCC(C(=O)N[C@@H](CC(=O)O)C(=O)CSCc1ccccc1)n1ccnc(NCCc2nc(C)no2)c1=O (some centres not stated) : is its IC50 strictly below 500 nM?
Output: label 0

Task: Record CCOCN(C)CNCC(=O)[C@H](CC(=O)O)NC(=O)C(CC)n1ccnc(NCc2nonc2C)c1=O (some centres not stated) : is its IC50 strictly below 500 nM?
Output: label 0

Task: Record CCC(C(=O)N[C@@H](CC(=O)O)C(=O)CSCc1ccccc1)n1ccnc(NCCn2cncn2)c1=O (some centres not stated) : is its IC50 strictly below 500 nM?
Output: label 0

Task: Record CCC(C(=O)N[C@@H](CC(=O)O)C(=O)CSCc1ccccc1)n1ccnc(NCCOC)c1=O (some centres not stated) : is its IC50 strictly below 500 nM?
Output: label 0

Task: Record CCC(C(=O)N[C@@H](CC(=O)O)C(=O)CSCc1ccccc1)n1ccnc(NCc2cccs2)c1=O (some centres not stated) : is its IC50 strictly below 500 nM?
Output: label 0

Task: Record CCC(C(=O)N[C@@H](CC(=O)O)C(=O)CNCN1CCOCC1)n1cc(C(C)(C)C)nc(NCc2nonc2C)c1=O (some centres not stated) : is its IC50 strictly below 500 nM?
Output: label 0

Task: Record CCCCCCN(C)CNCC(=O)[C@H](CC(=O)O)NC(=O)C(CC)n1cc(C(C)(CC)CC)nc(NCc2nonc2C)c1=O (some centres not stated) : is its IC50 strictly below 500 nM?
Output: label 1

---

# target.or.test.system: UniProt:P29466
# Sequence (P29466 whole entry): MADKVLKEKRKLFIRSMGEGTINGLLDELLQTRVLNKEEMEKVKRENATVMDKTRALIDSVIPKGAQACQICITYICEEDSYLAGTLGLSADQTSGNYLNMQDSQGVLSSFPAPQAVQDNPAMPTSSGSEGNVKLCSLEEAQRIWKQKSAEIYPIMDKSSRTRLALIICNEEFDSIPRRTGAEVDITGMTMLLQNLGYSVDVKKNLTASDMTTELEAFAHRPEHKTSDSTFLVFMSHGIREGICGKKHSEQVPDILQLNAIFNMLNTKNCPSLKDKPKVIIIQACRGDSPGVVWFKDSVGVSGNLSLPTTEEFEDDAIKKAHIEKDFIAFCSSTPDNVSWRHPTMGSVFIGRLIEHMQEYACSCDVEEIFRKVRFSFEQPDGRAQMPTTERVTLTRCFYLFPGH
# assay.info: Inhibitory concentration against recombinant human caspase-1 in neuronal precursor (NT2) cells
// classify: if (IC50 < 30 nM) true else false

compound	target.or.test.system	qualitative.label
CCC(C(=O)N[C@@H](CC(=O)O)C(=O)CSCc1ccccc1)n1ccnc(NCc2nnc(-c3ccccc3)o2)c1=O (stereo partly drawn)	UniProt:P29466	false

Task: Record CCCCCCN(C)CNCC(=O)[C@H](CC(=O)O)NC(=O)C(CC)n1ccnc(NCc2nonc2C)c1=O (stereo partly drawn) : is its IC50 strictly below 30 nM?
Output: true

Task: Record CCC(C(=O)N[C@@H](CC(=O)O)C(=O)CSCc1ccccc1)n1ccnc(NCCOC)c1=O (stereo partly drawn) : is its IC50 strictly below 30 nM?
Output: false

---

# target.or.test.system: Caspase-3 (Homo sapiens)
# Sequence (P42574 29-175 limits assumed): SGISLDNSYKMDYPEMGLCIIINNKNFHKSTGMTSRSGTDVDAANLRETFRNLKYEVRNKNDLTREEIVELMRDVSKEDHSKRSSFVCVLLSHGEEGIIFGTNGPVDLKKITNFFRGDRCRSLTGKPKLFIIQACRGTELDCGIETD
# Sequence (P42574 176-277 limits assumed): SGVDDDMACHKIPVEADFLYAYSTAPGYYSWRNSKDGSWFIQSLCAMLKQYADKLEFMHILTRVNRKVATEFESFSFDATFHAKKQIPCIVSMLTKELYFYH
# assay.info: Inhibitory concentration against recombinant human caspase-3 in neuronal precursor (NT2) cells
quantity.kind: log10 IC50 (log10 of the value in nM)
The figures below represent log10 of IC50, where IC50 is stated in nM.

The examples below pair each entry with its known result.
compound	quantity.kind	numeric.result
CCC(C(=O)N[C@@H](CC(=O)O)C(=O)c1ncc(-c2ccccc2)o1)n1ccnc(NCc2nonc2C)c1=O (some centres not stated)	log10 IC50	1.80
CCC(C(=O)N[C@@H](CC(=O)O)C(=O)CNCN1CCc2ccccc2C1)n1ccnc(NCc2nonc2C)c1=O (some centres not stated)	log10 IC50	1.11
CCCCCCN(C)CNCC(=O)[C@H](CC(=O)O)NC(=O)C(CC)n1cc(CC)nc(NCc2nonc2C)c1=O (some centres not stated)	log10 IC50	0.78
CCC(C(=O)N[C@@H](CC(=O)O)C(=O)CN[C@@H](C)c1ccccc1)n1ccnc(NCc2nonc2C)c1=O (some centres not stated)	log10 IC50	1.15

Task: Please look up its log10 IC50: CCC(C(=O)N[C@@H](CC(=O)O)C(=O)CSCc1ccccc1)n1ccnc(NCc2cccs2)c1=O (some centres not stated)
Output: 1.56

Task: Please look up its log10 IC50: CCC(C(=O)N[C@@H](CC(=O)O)C(=O)CSCc1ccccc1)n1ccnc(NCc2cncs2)c1=O (some centres not stated)
Output: 1.08

Task: Please look up its log10 IC50: CCC(C(=O)N[C@@H](CC(=O)O)C(=O)CSCc1ccccc1)n1ccnc(NCc2ccon2)c1=O (some centres not stated)
Output: 1.66
